tested on: PKAC-beta; construct: gene PRKACB; settings: concentration: 1 μM, replicates: in singlicate; n = 1;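 note: KINOMEscan kinase panel screen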
Below, each entry is listed alongside its reported %Inh.
Property name: %Inh (%)

[[record]]
molecule = "CCn1c(-c2c(N)noc2C)nc2cnccc21"
readout_number = 0

[[record]]
molecule = "COC(=O)C(NC(=O)NC1CCN(c2ccnc(Nc3ccc(F)cc3)n2)C1)c1ccccc1 (stereo not drawn)"
readout_number = 0

[[record]]
molecule = "CS(=O)(=O)CCNCc1nc(-c2ccc3ncnc(Nc4ccc5c(cnn5Cc5ccccc5)c4)c3c2)cs1.Cl.Cl"
readout_number = 3


---

tested on: ZAP70; details: concentration: 1 μM, replicates: in singlicate; n = 1
Property name: %Inh (%)

[[record]]
compound = "Cn1cncc1-c1cc2c(Nc3ccc(OCc4ccccc4)cc3)ncnc2cn1 [GW281179]"
units_of_measure = "%"
readout_number = 20

[[record]]
compound = "CNc1nc(-c2ccc3c(N)n[nH]c3c2)cc(N2C[C@@H](C(=O)NC3CCCCC3)OC[C@H]2C)n1 [GSK2375584]"
units_of_measure = "%"
readout_number = 0

[[record]]
compound = "CC(=O)c1c(C)c2cnc(Nc3ccn(C)n3)nc2n(C2CCCC2)c1=O"
units_of_measure = "%"
readout_number = 0

[[record]]
compound = "O=c1cc(N2CCOCC2)nc2n(Cc3ccccc3F)ccn12 [GSK2297428]"
units_of_measure = "%"
readout_number = 0

[[record]]
compound = "Cc1ccc(NC(=O)Nc2ccccc2F)cc1-c1ccc(C(=O)Nc2ccncc2)cc1 [GSK1398477]"
units_of_measure = "%"
readout_number = 0

[[record]]
compound = "CSc1ccc(-c2nc3n(c2-c2ccncc2)CCC3)cc1 [SKF-105561]"
units_of_measure = "%"
readout_number = 0

[[record]]
compound = "Fc1ccc(-c2nc[nH]c2-c2ccncc2)cc1 [SB-217360]"
units_of_measure = "%"
readout_number = 0

[[record]]
compound = "Fc1ccc(-c2nn3cccc(F)c3c2-c2ccncc2)cc1 [GW475620]"
units_of_measure = "%"
readout_number = 3

[[record]]
compound = "CNC(=O)c1ccc(C)c(-n2c(C)cc(OCc3ccc(F)cc3F)c(Br)c2=O)c1"
units_of_measure = "%"
readout_number = 0

[[record]]
compound = "COc1cc2ncnc(Nc3cccc(Br)c3)c2cc1OC.Cl [GI230329]"
units_of_measure = "%"
readout_number = 0

[[record]]
compound = "COC(=O)c1cccc(NC(=O)NC2CCN(c3ccnc(Nc4ccc(OC)cc4)n3)C2)c1 (stereo not shown) [GSK1379746]"
units_of_measure = "%"
readout_number = 0

[[record]]
compound = "CS(=O)(=O)CCNCc1nc(-c2ccc3ncnc(Nc4ccc(OCc5ccccc5)c(Cl)c4)c3c2)cs1.Cl [GW582764]"
units_of_measure = "%"
readout_number = 0

[[record]]
compound = "COc1ccc(-c2coc3ccc(-c4nnc(C)o4)cc23)cc1"
units_of_measure = "%"
readout_number = 18

[[record]]
compound = "FC(F)(F)c1ccccc1-c1cc(-c2c[nH]nc2-c2ccccn2)ccn1 [GW679396]"
units_of_measure = "%"
readout_number = 0

[[record]]
compound = "O=C(Nc1n[nH]c2cc(-c3ccsc3)ccc12)C1CC1 [SB-732932]"
units_of_measure = "%"
readout_number = 0

[[record]]
compound = "Cc1ccccc1Cn1ccn2c(=O)cc(N3CCOCC3)nc12 [GSK2269905]"
units_of_measure = "%"
readout_number = 0

[[record]]
compound = "Cc1ccc(NC(=O)c2ccc(Cl)cc2)cc1-c1ccc(C(=O)Nc2ccncc2)cc1 [GSK1398467]"
units_of_measure = "%"
readout_number = 6

[[record]]
compound = "Cc1nccc(-c2c(-c3ccc(F)cc3)ncn2CCCN2CCOCC2)n1.Cl [SB-282975]"
units_of_measure = "%"
readout_number = 25

[[record]]
compound = "COc1ccc(Nc2nccc(NCCNC(=O)Nc3cc(C)ccc3C)n2)cc1 [GSK1379899]"
units_of_measure = "%"
readout_number = 0


---

test system: GSK3A; details: concentration: 1 μM, replicates: in singlicate; n = 1
Property name: %Inh (%)

[[record]]
query_smiles = "Cc1ccccc1Cn1ccn2c(=O)cc(N3CCOCC3)nc12"
property_name = "%Inh"
units_of_measure = "%"
readout_number = 2

[[record]]
query_smiles = "COc1ccc2cc(-c3nc(-c4ccccc4C(C)C)[nH]c3-c3ccncc3)ccc2c1"
property_name = "%Inh"
units_of_measure = "%"
readout_number = 2

[[record]]
query_smiles = "CCCCc1nn2ncccc2c1-c1ccnc(NC2CC2)n1"
property_name = "%Inh"
units_of_measure = "%"
readout_number = 4


---

tested on: YES; construct: gene YES1; settings: concentration: 1 μM, replicates: in singlicate; n = 1
Below, each entry is listed alongside its reported %Inh.
Property name: %Inh (%)

[[record]]
molecule = "CS(=O)(=O)Cc1ccc(Nc2nccc(-c3c(-c4cccc(NC(=O)C5CCCCC5)c4)nn4ncccc34)n2)cc1"
units_of_measure = "%"
readout_number = 36

[[record]]
molecule = "CSc1ccc(-c2nc3n(c2-c2ccncc2)CCC3)cc1"
units_of_measure = "%"
readout_number = 7

[[record]]
molecule = "CC(C)c1cc(-c2ccc3c(N)n[nH]c3c2)nc(N)n1"
units_of_measure = "%"
readout_number = 16

[[record]]
molecule = "COc1cccc(C2=C(Nc3cc(Cl)c(O)c(Cl)c3)C(=O)NC2=O)c1"
units_of_measure = "%"
readout_number = 19

[[record]]
molecule = "CCn1c(-c2ccccc2)nc2cnccc21"
units_of_measure = "%"
readout_number = 4

[[record]]
molecule = "Cc1cnc(N)c(/C=C/c2cncc(C(=O)NCCc3ccc(Cl)cc3Cl)c2)c1.Cl"
units_of_measure = "%"
readout_number = 20

[[record]]
molecule = "Nc1nccc(-c2c(-c3ccc(F)cc3)ncn2C2CCN(Cc3ccccc3)CC2)n1"
units_of_measure = "%"
readout_number = 0

[[record]]
molecule = "COc1nccc(-c2c(-c3ccc(F)cc3)ncn2CCCN2CCOCC2)n1"
units_of_measure = "%"
readout_number = 0

[[record]]
molecule = "COC(=O)c1cccc(NC(=O)NC2CCN(c3ccnc(Nc4ccc(OC)cc4)n3)C2)c1 (centres unmarked)"
units_of_measure = "%"
readout_number = 13

[[record]]
molecule = "CC(=O)c1c(C)c2cnc(Nc3ccn(C)n3)nc2n(C2CCCC2)c1=O"
units_of_measure = "%"
readout_number = 1

[[record]]
molecule = "CC[C@@H]1CO[C@H](C(=O)Nc2ccccc2)CN1c1cc(-c2ccc3c(N)n[nH]c3c2)nc(NC)n1"
units_of_measure = "%"
readout_number = 0

[[record]]
molecule = "CCCCc1nn2ncccc2c1-c1ccnc(NC2CC2)n1"
units_of_measure = "%"
readout_number = 0

[[record]]
molecule = "CS(=O)(=O)CCNCc1nc(-c2ccc3ncnc(Nc4ccc5c(cnn5Cc5ccccc5)c4)c3c2)cs1.Cl.Cl"
units_of_measure = "%"
readout_number = 21

[[record]]
molecule = "Cc1ccc(NC(=O)Nc2ccc(Cl)c(C(F)(F)F)c2)cc1-c1ccc(C(=O)Nc2ccncc2)cc1"
units_of_measure = "%"
readout_number = 7

[[record]]
molecule = "CS(=O)(=O)CCNCc1nc(-c2ccc3ncnc(Nc4ccc(OCc5ccccc5)c(Cl)c4)c3c2)cs1.Cl"
units_of_measure = "%"
readout_number = 7

[[record]]
molecule = "Cc1ccc(NC(=O)c2ccc(Cl)cc2)cc1-c1ccc(C(=O)Nc2ccncc2)cc1"
units_of_measure = "%"
readout_number = 18

[[record]]
molecule = "CNc1nc(-c2ccc3c(N)n[nH]c3c2)cc(N2C[C@@H](C(=O)Nc3ccccc3)CC[C@H]2C)n1"
units_of_measure = "%"
readout_number = 2


---

Below, each entry is listed alongside its reported %Inh.
test system: FLT3-autoinhibited; conditions: concentration: 1 μM, replicates: in singlicate; n = 1
Property name: %Inh (%)

[[record]]
molecule = "FC(F)(F)c1ccccc1-c1cc(-c2c[nH]nc2-c2ccccn2)ccn1"
readout_number = 0

[[record]]
molecule = "COc1ccc(Nc2nccc(NCCNC(=O)Nc3cc(C)ccc3C)n2)cc1"
readout_number = 2

[[record]]
molecule = "COc1ccc(Nc2nccc(N3CCC(NC(=O)c4cc5ccccc5s4)C3)n2)cc1 (centres unmarked)"
readout_number = 0

[[record]]
molecule = "COc1nccc(-c2c(-c3ccc(F)cc3)ncn2CCCN2CCOCC2)n1"
readout_number = 4

[[record]]
molecule = "Cc1cccc2c(-c3ccncn3)c(-c3ccc(F)cc3)nn12"
readout_number = 12


---

tested on: RIPK2; conditions: concentration: 1 μM, replicates: in singlicate; n = 1
Decision: %Inh >= 10% yields 1, all other cases yield 0.

[[record]]
molecule = "CCn1c(-c2ccccc2)nc2cnccc21"
answer_label = 0

[[record]]
molecule = "COc1cccc(NC(=O)Nc2ccc(C)c(-c3ccc(C(=O)Nc4ccncc4)cc3)c2)c1"
answer_label = 0

[[record]]
molecule = "Cc1cccc2c(-c3ccncn3)c(-c3ccc(F)cc3)nn12"
answer_label = 1

[[record]]
molecule = "c1ccc(-c2ccnc3[nH]ccc23)cc1"
answer_label = 1

[[record]]
molecule = "CCCCc1nn2ncccc2c1-c1ccnc(NC2CC2)n1"
answer_label = 0

[[record]]
molecule = "COc1cccc(CNC(=O)NC2CCN(c3ccnc(Nc4ccc(F)cc4)n3)C2)c1 (stereo not drawn)"
answer_label = 0

[[record]]
molecule = "COc1cccc(C2=C(Nc3cc(Cl)c(O)c(Cl)c3)C(=O)NC2=O)c1"
answer_label = 1

[[record]]
molecule = "CCn1c(-c2c(N)noc2C)nc2cnccc21"
answer_label = 0

